METHOD NOTES: Inhibition of beta-lactamase IMP-1 (unknown origin) expressed in Escherichia coli BL21(DE3) using imipenem as substrate by measuring substrate hydrolysis at 100 uM by spectrophotometric analysis
The source made the active and inactive calls. No cut-off for these calls is given here.
ASSAY METRIC: inhibition

>>> obs_value("Oc1ccc(/C=N/n2c(-c3cc(O)ccc3O)n[nH]c2=S)c(O)c1")
"50%"
>>> obs_value("Oc1ccc(/C=N/n2c(-c3cccc(-c4ccccc4)c3)n[nH]c2=S)c(O)c1")
"inactive"
>>> obs_value("O=C(O)c1ccccc1/C=N/n1c(-c2cccc3ccccc23)n[nH]c1=S")
"35%"
>>> obs_value("Cc1ccccc1-c1n[nH]c(=S)n1/N=C/c1cnc[nH]1")
"inactive"
>>> obs_value("Oc1ccc(/C=N/n2c(-c3ccccc3)n[nH]c2=S)c(O)c1")
"54%"
